Catalogue of binders with associated A450 ELISA
tested.target: T1, Aβ1-42 peptide
T1 construct: also called 1-42 (WT)
T1 sequence (peptide, as listed by the source): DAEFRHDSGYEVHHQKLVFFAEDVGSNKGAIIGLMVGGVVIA
assay.text: ELISA, nonbiotinylated peptide on plate; also: test concentration or dose not given here
Supply the numeric figure in A450, leaving out any unit text.

[
  {
    "binder": "6G light chain variant 5H (E97R) (antibody, V domains shown) VH: QVQLVQSGAEVKKPGASVKVSCKASGYTFTTYAIHWVRQAPGQGLEWMGFTSPYSGVSNYNQKFKGRVTMTRDTSTSTVYMELSSLRSEDTAVYYCARFDNYDRGYVRDYWGQGTLVTVS VL: DIVMTQSPDSLAVSLGERATINCRASESVDNDRISFLNWYQQKPGQPPKLLIYAATKQGTGVPDRFSGSGSGTDFTLTISSLQAEDVAVYYCQQSKRFPWSFGGGTKVEIKR",
    "A450 ELISA (A450)": 0.85
  },
  {
    "binder": "6G heavy chain variant 3C (D103G) (antibody, V domains shown) VH: QVQLVQSGAEVKKPGASVKVSCKASGYTFTTYAIHWVRQAPGQGLEWMGFTSPYSGVSNYNQKFKGRVTMTRDTSTSTVYMELSSLRSEDTAVYYCARFDNYGRGYVRDYWGQGTLVTVS VL: DIVMTQSPDSLAVSLGERATINCRASESVDNDRISFLNWYQQKPGQPPKLLIYAATKQGTGVPDRFSGSGSGTDFTLTISSLQAEDVAVYYCQQSKEFPWSFGGGTKVEIKR",
    "A450 ELISA (A450)": 0.76
  },
  {
    "binder": "6G heavy chain variant 10G (Y102I) (antibody, V domains shown) VH: QVQLVQSGAEVKKPGASVKVSCKASGYTFTTYAIHWVRQAPGQGLEWMGFTSPYSGVSNYNQKFKGRVTMTRDTSTSTVYMELSSLRSEDTAVYYCARFDNIDRGYVRDYWGQGTLVTVS VL: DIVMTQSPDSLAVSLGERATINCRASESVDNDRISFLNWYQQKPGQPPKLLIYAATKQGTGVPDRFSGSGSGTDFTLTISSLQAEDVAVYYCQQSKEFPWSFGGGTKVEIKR",
    "A450 ELISA (A450)": 0.22
  },
  {
    "binder": "6G heavy chain variant 9E (N101R) (antibody, V domains shown) VH: QVQLVQSGAEVKKPGASVKVSCKASGYTFTTYAIHWVRQAPGQGLEWMGFTSPYSGVSNYNQKFKGRVTMTRDTSTSTVYMELSSLRSEDTAVYYCARFDRYDRGYVRDYWGQGTLVTVS VL: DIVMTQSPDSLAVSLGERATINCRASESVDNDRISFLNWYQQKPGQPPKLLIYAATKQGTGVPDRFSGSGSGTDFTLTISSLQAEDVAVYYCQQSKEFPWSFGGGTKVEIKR",
    "A450 ELISA (A450)": 0.26
  }
]

We next turn to a different binder, shown below.
Measured A450 ELISA, 6G light chain variant 3A (Q93P) (antibody, V domains shown) VH: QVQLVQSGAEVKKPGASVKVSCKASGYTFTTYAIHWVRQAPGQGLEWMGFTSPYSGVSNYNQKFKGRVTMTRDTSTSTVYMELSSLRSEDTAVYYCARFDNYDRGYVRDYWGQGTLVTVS VL: DIVMTQSPDSLAVSLGERATINCRASESVDNDRISFLNWYQQKPGQPPKLLIYAATKQGTGVPDRFSGSGSGTDFTLTISSLQAEDVAVYYCPQSKEFPWSFGGGTKVEIKR : 0.13
